assay: Quantitative High-Throughput drug screen in 47 multiple myeloma cell lines against the NCATS MIPE library collection: Karpas620_DSMZ cell viability assay (AID 1918959); conditions: Karpas620 myeloma viability, CellTiter-Glo ATP luminescence, 48 h; series mostly up to 45.8 µM; further: nearly all actives have a fitted effect of over 30% in size; further: potency means the concentration at half of the fitted maximal effect
Inconclusive results are not listed. The source made the active and inactive calls. The call rests on the fitted dose curve; in most records, active means well fitted cell-killing curve with a large enough effect; inconclusive means small, poorly fitted or top-dose-only effect, or effect the other way; inactive means no such curve, though single readings can be large or run the other way.
measurement kind: Potency

Consider the worked cases shown below.
# query: Potency of entry Cc1c(OCC(F)(F)F)ccnc1CS(=O)c1nc2ccccc2[nH]1 (stereo not given) inactive

Field request: Potency | item: C=CCc1cc(OC)c(O)c(C(=O)NCCO)c1 inactive

What does the record list as Potency for COC(=O)N[C@H](C(=O)N[C@@H](Cc1ccccc1)[C@@H](O)CN(Cc1ccc(-c2ccccn2)cc1)NC(=O)[C@@H](NC(=O)OC)C(C)(C)C)C(C)(C)C ? inactive

Tell me the measured Potency of COc1cc(Nc2c(C#N)cnc3cc(OCCCN4CCN(C)CC4)c(OC)cc23)c(Cl)cc1Cl , please. 11.8 µM (active)

Data request, read-out Potency, for CN(C)c1ccc(O)c2c1C[C@H]1C[C@H]3[C@H](N(C)C)C(=O)C(C(N)=O)=C(O)[C@@]3(O)C(=O)C1=C2O inactive

Reported Potency for CC1(C)C(=O)N(CCN2CCC(C(=O)c3ccc(F)cc3)CC2)c2ccccc21 : what is it? 3.72 µM (active)

Others:
Quick one: Potency for C=C(c1ccc(C(=O)O)cc1)c1cc2c(cc1C)C(C)(C)CCC2(C)C ? inactive

Which Potency value belongs to Clc1ccc(C(Cn2ccnc2)OCc2ccc(Sc3ccccc3)cc2)c(Cl)c1 (stereo not given) ? 18.7 µM (active)

Query: Potency; subject: COc1c(O)cc2c(c1O)[C@@H]1O[C@H](CO)[C@@H](O)[C@H](O)[C@H]1OC2=O inactive

Bench note: what Potency did Cc1cc(=O)oc2cc(O)ccc12 show? inactive

----------
Tested on: W2
Assay: qHTS profiling for inhibitors of Plasmodium falciparum proliferation (AID 504749); further: nearly all actives have a fitted effect of over 60% in size
Conditions: P. falciparum in erythrocytes, SYBR Green DNA, 72 h; series mostly up to 28.7 µM
Method: NIH National Institute of Allergy and Infectious Diseases [NIAID] NIH Chemical Genomics Center [NCGC] […] Because mature erythrocytes lack DNA, only Plasmodium-derived DNA is detected. NCGC Assay Protocol Summary: The SYBR Green viability assay was adapted from a method described previously (Plouffe et al., 2008). […] The following morning, fluorescence intensity at 485(14) nm excitation and 535(25) nm emission wavelengths was measured on an EnVision (Perkin Elmer) plate reader. […]
Results filed as inconclusive are left out. The source made the active and inactive calls. Calls follow the shape of the dose curve; as a rule, active = well fitted inhibition curve with a large enough effect; inconclusive = small, poorly fitted or top-dose-only effect; inactive = flat fitted curve, though single readings scatter.
Form entry, call: pick from true (1) (active), false (0) (inactive)

Reference set, count: 4
Answer briefly: the call reported for Nc1cccc2c1CN(C1CCC(=O)NC1=O)C2=O (stereo not given) in this assay. false (0)

Please let me know the test result on file for CCN(CCO)CCCC(C)Nc1ccnc2cc(Cl)ccc12 (stereo not given) . false (0)

Would you mind telling me which call this test gave CCC(C)(Oc1ccc(C2(c3ccc(OC(C)(CC)C(=O)O)cc3)CCCCC2)cc1)C(=O)O (stereo not given) ? false (0)

Each compound tested received a call. Report the one for CN(C)C(=O)COC(=O)Cc1ccc(OC(=O)c2ccc(N=C(N)N)cc2)cc1 . false (0)

***
Answer briefly: the call reported for COCCCOc1ccnc(CS(=O)c2nc3ccccc3[nH]2)c1C (stereo not given) in this assay. true (1)
